Assay Protocol: Selectivity index, ratio of CC50 for human THP1 cells to EC50 for amastigote stage of Leishmania donovani MHOM/ET/67/HU3
Type: toxicity, cell-based
Conditions Used: THP-1 cells, read-out: Ratio CC50/EC50
Exercise: state measured selectivity ratio for each of the compounds provided.
Please reply with the value in numeric form only.

The reported value for N#Cc1ccc(NC(=O)c2c(NC(=O)C(F)(F)F)sc3c2CCCCC3)cc1 in terms of selectivity ratio is 1.06

The reported value for C[C@@H]1[C@H](O)[C@@H](C)/C=C/C=C/C=C/C=C/C=C/C=C/C=C/[C@H](O[C@@H]2O[C@H](C)[C@@H](O)[C@H](N)[C@@H]2O)C[C@@H]2O[C@](O)(C[C@@H](O)C[C@@H](O)[C@H](O)CC[C@@H](O)C[C@@H](O)CC(=O)O[C@H]1C)C[C@H](O)[C@H]2C(=O)O [AMPHOTERICIN B] in terms of selectivity ratio is 30.2

The reported value for CCCCCCCCCCCCCCCCOP(=O)([O-])OCC[N+](C)(C)C [MILTEFOSINE] in terms of selectivity ratio is 3.19

The reported value for COc1cccc(NC(=O)c2c(NC(=O)C(F)(F)F)sc3c2CCCCC3)c1 in terms of selectivity ratio is 3.71

* * *

Exercise: state measured selectivity ratio for each of the molecules provided.
Assay Protocol: Selectivity index, ratio of CC50 for human THP1 cells to EC50 for amastigote stage of Leishmania donovani MHOM/ET/67/HU3
Type: toxicity, cell-based
Conditions Used: THP-1 cells, read-out: Ratio CC50/EC50

The reported value for COc1ccc(NC(=O)c2c(NC(=O)C(F)(F)F)sc3c2CCCC3)cc1 in terms of selectivity ratio is > 3.42

The reported value for COc1ccc(NC(=O)c2c(NC(=O)C(F)(F)F)sc3c2CCCCC3)cc1 in terms of selectivity ratio is > 7.8

The reported value for COc1ccc(NC(=O)c2c(NC(=O)C(F)(F)F)sc(C)c2C)cc1 in terms of selectivity ratio is > 4.95

These measurements were taken from ChEMBL document CHEMBL3132753.
